Test system: 786-O
Assay: Euclidean distance of Cell Painting phenotypic profile (signed KS, 77 features) to DMSO centroid (dimensionless distance); 5 or 10 uM (library dependent); higher = stronger phenotypic change vs DMSO (phenoactivity)
Conditions: 48 h
Endpoint name: Euclidean distance

Sample records with Euclidean distance:
INSERT INTO results (compound, target, reading) VALUES
  ('CC1CCc2c(N3CCC(O)CC3)c(F)cc3c(=O)c(C(=O)O)cn1c23 (centres undefined)', '786-O', 1.05),
  ('COc1c(C)c(C(=O)c2ccc(N)c(C(=O)O)c2)n2ccccc12', '786-O', 0.838),
  ('CCc1nc(C(N)=O)c(Nc2ccc(N3CCC(N4CCN(C)CC4)CC3)c(OC)c2)nc1NC1CCOCC1', '786-O', 2.93);

Turning to the following compound.
Incoming: Returns the measured Euclidean distance for the input compound. Input: COc1ccc(Cl)cc1C(=O)NCCc1ccc(S(=O)(=O)NC(=O)NC2CCCCC2)cc1 [Glyburide]
Outgoing: 1.1

====

System: OVCAR4
Assay: Euclidean distance of Cell Painting phenotypic profile (signed KS, 77 features) to DMSO centroid (dimensionless distance); 5 or 10 uM (library dependent); higher = stronger phenotypic change vs DMSO (phenoactivity)
Settings: 48 h
Structures can show the parent of a compound that is named as a salt.
Endpoint name: Euclidean distance
Give bare numbers.

Sample records with Euclidean distance:
INSERT INTO assay_data (compound, reading) VALUES
  ('COc1ccc2[nH]cc(CCNC(C)=O)c2c1', 0.982),
  ('Cc1cccc(CC(=O)N2CCc3c2ccc(-c2cn(C)c4ncnc(N)c24)c3F)n1', 1.35),
  ('CC(CCc1ccccc1)NCC(O)c1ccc(O)c(C(N)=O)c1 (stereo not drawn) [Labetalol HCl]', 1.22),
  ('CC(=O)OCC(=O)[C@@]1(O)CC[C@H]2[C@@H]3CCC4=CC(=O)C=C[C@]4(C)[C@H]3[C@@H](O)C[C@@]21C [Prednisolone Acetate]', 2.1);

Hey, quick one: what's Euclidean distance for each of these?
1. N[C@@H](CCC(=O)N[C@@H](CS)C(=O)NCC(=O)O)C(=O)O
2. CCCCCCCCCC(=O)CC(O)S(=O)(=O)O (stereo not drawn) [Sodium Houttuyfonate]
3. CCCNC(C)C(=O)Nc1ccccc1C (stereo not drawn)
4. O=C1OC2(c3ccc(O)cc3Oc3cc(O)ccc32)c2ccccc21
5. N=C(NOCC(O)CN1CCCCC1)c1cccnc1 (stereo not drawn)

Outgoing:
1: 1.55; 2: 1.66; 3: 0.974; 4: 1.27; 5: 1.05

Hey, quick one: what's Euclidean distance for each of these?
1. CC(=O)[O-].[K+] [Potassium acetate]
2. CCC(CC)(NC(=O)C(C)C)C(=O)N[C@@H](CCCN=C(N)N)C(=O)NC1(C(=O)NC(c2ccc(F)cc2)c2ccc(F)cc2)CCCC1
3. Nc1cc(Cl)c(N=C2NCCN2)c(Cl)c1 [Apraclonidine HCl]

Outgoing:
1: 1.3; 2: 0.893; 3: 2

Hey, quick one: what's Euclidean distance for each of these?
1. CN1C(=O)OC(C)(C)C1=O
2. C[C@H](Nc1ncnc2nc[nH]c12)c1cc2cccc(Cl)c2c(=O)n1-c1ccccc1

Outgoing:
0.721
1.91

Hey, quick one: what's Euclidean distance for each of these?
1. C#Cc1cccc(Nc2ncnc3cc(OCCOC)c(OCCOC)cc23)c1 [Erlotinib]
2. C[C@@H](c1nc(-c2ccc(C#N)cc2)cs1)[C@](O)(Cn1cncn1)c1cc(F)ccc1F

Outgoing:
1. 1.87
2. 1.43

Hey, quick one: what's Euclidean distance for each of these?
1. CCC1(c2c[nH]cn2)Cc2ccccc2C1
2. NC(=O)c1cnccn1 [Pyrazinamide]
3. CS(=O)(=O)CCNCc1ccc(-c2ccc3ncnc(Nc4ccc(OCc5cccc(F)c5)c(Cl)c4)c3c2)o1 [Lapatinib]
4. C/C=C\c1ccc(OC)cc1 [cis-Anethole]

Outgoing:
[0.675, 1.13, 3.77, 1.2]

Hey, quick one: what's Euclidean distance for each of these?
1. Cc1cc(NC(=O)Nc2ccc(N(C)C)cc2)c2cc(F)cc(F)c2n1
2. CC(=O)OC(C)C[N+](C)(C)C (stereo not drawn) [Methacholine chloride]
3. CCN(CC)CCOc1ccc2c(c1)C(=O)c1cc(OCCN(CC)CC)ccc1-2 [Tilorone dihydrochloride]

Outgoing:
[0.985, 1.45, 3.1]

Values compiled from the supplement of paper PMC10127200.
